- target: Porcine ventricle myofibrils (ventricular myosin ATPase) (Sus scrofa, UniProt P79293)
- Construct: Myofibrils from porcine cardiac muscle was isolated from the left ventricle of Yucatan minipigs; tissue Exemplar Genetics; host or cells: left ventricle of Yucatan minipigs, myofibrils prepared in house
- Sequence (P79293 whole entry): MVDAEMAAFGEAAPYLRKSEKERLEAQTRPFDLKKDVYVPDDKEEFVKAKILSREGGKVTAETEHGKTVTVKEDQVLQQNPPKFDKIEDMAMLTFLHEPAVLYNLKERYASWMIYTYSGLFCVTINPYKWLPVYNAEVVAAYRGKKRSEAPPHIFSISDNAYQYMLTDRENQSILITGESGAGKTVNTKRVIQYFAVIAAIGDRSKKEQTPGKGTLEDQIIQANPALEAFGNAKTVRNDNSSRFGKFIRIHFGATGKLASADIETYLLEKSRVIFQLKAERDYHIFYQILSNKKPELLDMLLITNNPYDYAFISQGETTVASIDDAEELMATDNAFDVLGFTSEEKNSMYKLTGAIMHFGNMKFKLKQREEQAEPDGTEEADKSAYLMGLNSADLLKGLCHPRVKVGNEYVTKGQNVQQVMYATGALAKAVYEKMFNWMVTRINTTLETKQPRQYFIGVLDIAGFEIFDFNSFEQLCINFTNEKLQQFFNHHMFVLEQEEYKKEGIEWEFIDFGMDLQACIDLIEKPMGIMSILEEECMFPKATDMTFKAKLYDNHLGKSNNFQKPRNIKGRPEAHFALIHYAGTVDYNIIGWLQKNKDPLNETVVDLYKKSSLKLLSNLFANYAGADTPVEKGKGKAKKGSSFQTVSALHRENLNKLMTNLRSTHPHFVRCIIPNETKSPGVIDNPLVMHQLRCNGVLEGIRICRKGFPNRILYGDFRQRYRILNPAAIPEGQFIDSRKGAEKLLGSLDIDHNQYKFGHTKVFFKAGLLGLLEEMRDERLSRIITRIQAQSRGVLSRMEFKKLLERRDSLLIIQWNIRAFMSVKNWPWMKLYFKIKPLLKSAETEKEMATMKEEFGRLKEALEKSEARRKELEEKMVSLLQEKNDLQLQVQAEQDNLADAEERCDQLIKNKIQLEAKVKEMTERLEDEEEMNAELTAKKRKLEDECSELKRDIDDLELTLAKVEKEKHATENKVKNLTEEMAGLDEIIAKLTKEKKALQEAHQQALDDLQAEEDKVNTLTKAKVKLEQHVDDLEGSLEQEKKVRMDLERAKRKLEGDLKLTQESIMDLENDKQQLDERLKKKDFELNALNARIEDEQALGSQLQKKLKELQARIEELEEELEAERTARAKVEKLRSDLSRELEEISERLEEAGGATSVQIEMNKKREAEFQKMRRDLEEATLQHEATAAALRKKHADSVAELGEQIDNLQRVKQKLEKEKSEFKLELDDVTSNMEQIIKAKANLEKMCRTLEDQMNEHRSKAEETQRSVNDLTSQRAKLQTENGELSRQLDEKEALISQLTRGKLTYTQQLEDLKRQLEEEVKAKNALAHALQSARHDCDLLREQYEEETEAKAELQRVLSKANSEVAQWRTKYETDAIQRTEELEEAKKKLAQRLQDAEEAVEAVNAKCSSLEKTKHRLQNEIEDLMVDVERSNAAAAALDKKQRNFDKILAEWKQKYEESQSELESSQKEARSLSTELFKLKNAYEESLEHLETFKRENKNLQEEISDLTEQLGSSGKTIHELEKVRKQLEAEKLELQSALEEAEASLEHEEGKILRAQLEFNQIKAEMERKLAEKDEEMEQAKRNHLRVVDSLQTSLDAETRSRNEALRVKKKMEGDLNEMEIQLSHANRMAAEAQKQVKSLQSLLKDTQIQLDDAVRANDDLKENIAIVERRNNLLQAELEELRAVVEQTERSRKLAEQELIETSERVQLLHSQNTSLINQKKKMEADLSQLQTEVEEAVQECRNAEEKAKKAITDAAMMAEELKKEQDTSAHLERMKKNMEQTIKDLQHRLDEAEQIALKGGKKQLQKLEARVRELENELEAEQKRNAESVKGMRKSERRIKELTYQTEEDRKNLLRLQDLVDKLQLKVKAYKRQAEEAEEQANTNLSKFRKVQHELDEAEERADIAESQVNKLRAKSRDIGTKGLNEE
- protocolNotes: Myofibril ATPase assay, porcine ventricle myofibrils
- Format: biochemical, porcine (Yucatan minipigs)
- particulars: porcine ventricle myofibrils; Y75 value
The reader will find reported Ventricular EC25 values listed item by item below.
Record the value in nM, omitting the unit from your answer.

Output measured Ventricular EC25 for this item: Cc1nc(C#N)cnc1[C@@H](C)NC(=O)Cc1c(C)c2nc(C(F)(F)F)ccc2[nH]c1=O (single isomer, unassigned) 1170

Output measured Ventricular EC25 for this item: `Cc1c(CC(=O)N[C@@H](C)c2ccc(F)cc2F)c(=O)[nH]c2ccc(C(F)(F)F)nc12` 420

Output measured Ventricular EC25 for this item: `COC[C@H](NC(=O)Cc1c(C)c2c(C#N)nccc2[nH]c1=O)c1ncc(F)cc1F` 2230

Output measured Ventricular EC25 for this item: Cc1nccc2[nH]c(=O)c(CC(=O)N[C@H]3c4c(F)cc(F)cc4OC3(C)C)c(C)c12 (single isomer, unassigned) 13140

Taken from patent US12448369B2.
